assay notes: Antimicrobial activity against erythromycin-nonsusceptible Streptococcus Group G clinical isolates by broth microdilution method
Type: functional
condition parameters: Streptococcus sp. 'group G'

smiles str: CN[C@H](CC(C)C)C(=O)N[C@H]1C(=O)N[C@@H](CC(N)=O)C(=O)N[C@H]2C(=O)N[C@H]3C(=O)N[C@H](C(=O)N[C@H](C(=O)O)c4cc(O)cc(O)c4-c4cc3ccc4O)[C@H](O[C@H]3C[C@](C)(N)[C@@H](O)[C@H](C)O3)c3ccc(c(Cl)c3)Oc3cc2cc(c3O[C@@H]2O[C@H](CO)[C@@H](O)[C@H](O)[C@H]2O[C@H]2C[C@](C)(NCc3ccc(-c4ccc(Cl)cc4)cc3)[C@@H](O)[C@H](C)O2)Oc2ccc(cc2Cl)[C@H]1O
value unit: µg/mL
modifier: =
MIC90: 0.25

smiles str: CC[C@H]1OC(=O)[C@H](C)[C@@H](O[C@H]2C[C@@](C)(OC)[C@@H](O)[C@H](C)O2)[C@H](C)[C@@H](O[C@@H]2O[C@H](C)C[C@H](N(C)C)[C@H]2O)[C@](C)(O)C[C@@H](C)C(=O)[C@H](C)[C@@H](O)[C@]1(C)O
value unit: µg/mL
modifier: >
MIC90: 2

smiles str: CN[C@H](CC(C)C)C(=O)N[C@H]1C(=O)N[C@@H](CC(N)=O)C(=O)N[C@H]2C(=O)N[C@H]3C(=O)N[C@H](C(=O)N[C@H](C(=O)O)c4cc(O)cc(O)c4-c4cc3ccc4O)[C@H](O)c3ccc(c(Cl)c3)Oc3cc2cc(c3O[C@@H]2O[C@H](CO)[C@@H](O)[C@H](O)[C@H]2O[C@H]2C[C@](C)(N)[C@H](O)[C@H](C)O2)Oc2ccc(cc2Cl)[C@H]1O
value unit: µg/mL
modifier: =
MIC90: 0.5

smiles str: CCC[C@@H]1C[C@@H](C(=O)N[C@@H]([C@H]2O[C@H](SC)[C@H](O)[C@@H](O)[C@H]2O)[C@H](C)Cl)N(C)C1
value unit: µg/mL
modifier: >
MIC90: 1

smiles str: C[C@H]1COc2c(N3CCN(C)CC3)c(F)cc3c(=O)c(C(=O)O)cn1c23.C[C@H]1COc2c(N3CCN(C)CC3)c(F)cc3c(=O)c(C(=O)O)cn1c23.O
value unit: µg/mL
modifier: =
MIC90: 0.5

smiles str: CC1(C)S[C@@H]2[C@H](NC(=O)Cc3ccccc3)C(=O)N2[C@H]1C(=O)O
value unit: µg/mL
modifier: =
MIC90: 0.03

###

Test system: Streptococcus agalactiae
assay notes: Antimicrobial activity against erythromycin-susceptible Streptococcus agalactiae clinical isolates assessed as percent susceptible isolates by broth microdilution method
Format: functional

compound: CC1(C)S[C@@H]2[C@H](NC(=O)Cc3ccccc3)C(=O)N2[C@H]1C(=O)O [PENICILLIN G]
Activity / %: 100

###

Test system: Enterococcus faecalis
assay notes: Antimicrobial activity against Enterococcus faecalis expressing VanA gene clinical isolates by broth microdilution method
Format: functional
List of MIC90 values.

smiles str: CN[C@H](CC(C)C)C(=O)N[C@H]1C(=O)N[C@@H](CC(N)=O)C(=O)N[C@H]2C(=O)N[C@H]3C(=O)N[C@H](C(=O)N[C@H](C(=O)O)c4cc(O)cc(O)c4-c4cc3ccc4O)[C@H](O)c3ccc(c(Cl)c3)Oc3cc2cc(c3O[C@@H]2O[C@H](CO)[C@@H](O)[C@H](O)[C@H]2O[C@H]2C[C@](C)(N)[C@H](O)[C@H](C)O2)Oc2ccc(cc2Cl)[C@H]1O
MIC90: > 256 mg/L
//
smiles str: C[C@H]1COc2c(N3CCN(C)CC3)c(F)cc3c(=O)c(C(=O)O)cn1c23.C[C@H]1COc2c(N3CCN(C)CC3)c(F)cc3c(=O)c(C(=O)O)cn1c23.O
MIC90: > 16 mg/L
//
smiles str: CN[C@@H]1[C@H](O[C@H]2[C@H](O[C@H]3[C@H](O)[C@@H](O)[C@H](N=C(N)N)[C@@H](O)[C@@H]3N=C(N)N)O[C@@H](C)[C@]2(O)C=O)O[C@@H](CO)[C@H](O)[C@H]1O
MIC90: > 1000 mg/L
